Values from PubChem BioAssay

# method description: sensitizers of A549 cells to miR-34 induction, primary screen, imaging, A549 dox-inducible miR-34, nuclei and caspase counts (AID 1347080)
# setup conditions: A549 miR-34 inducible, Hoechst nuclei count, 48 h; measured here: total cells with miR-34 induction; stronger effect = lower value
quantity: cell count
Please reply with the value in numeric form only.

Below: 5 molecules and their reported cell count.
molecule: CC(O)C(=O)O (stereo unspecified)
measured result: 8900

molecule: CC1(CN2CCC(n3c(=O)[nH]c4ccccc43)CC2)OCc2ccccc2-n2cccc21 (stereo unspecified)
measured result: 6010

molecule: CCS(=O)(=O)Nc1ccc2[nH]c(O)c(C(=Nc3ccc(CN4CCCCC4)cc3)c3ccccc3)c2c1
measured result: 720

molecule: CC[C@H](CO)NCCN[C@H](CC)CO
measured result: 8580

molecule: CCCCCCCCCCCCCCC[C@H](O)[C@@H](N)CO
measured result: 5120

Supply reported cell count belonging to this molecule: O=c1c2ccccc2oc2ccccc12 7550

Give cell count for CC(C)COC(=O)c1ccc(N)cc1 8750

Please report cell count for the following molecule: O=C(O)CN(CCOCCOCCN(CC(=O)O)CC(=O)O)CC(=O)O 9820

Answer with reported cell count of NC(N)=NCCC[C@H](N)C(=O)O 10400

Give the reported cell count for this molecule. NCCCCN=C(N)N 10300

Supply recorded cell count for C=C1C[C@H]2[C@@H]3C=C(C)C4=CC(=O)CC[C@]4(C)[C@H]3CC[C@]2(C)[C@@]1(OC(C)=O)C(C)=O here. 5790

* * *

# Tested on: R275C
# method description: modulators of BK channel variants, profiling panel, selectivity assay, cell-based, U2OS BacMam, thallium flux, beta subunits (AID 1259406);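 also: initial slope of Thallos dye fluorescence rise after thallium is added; log ratio against the mean of 0.3% DMSO vehicle wells on the same plate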
# setup conditions: at 30 µM
Active and inactive are the calls of the source.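 How the source made its calls: active means thallium flux through the channel raised or lowered by more than 3 SD from vehicle-only wells, actives on both sides; inactive means the rest.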
Please answer using one outcome listed in yes = active, no = inactive

compound: CC(C)n1c(/C=C/[C@@H](O)C[C@@H](O)CC(=O)O)c(-c2ccc(F)cc2)c2ccccc21
target under test: R275C
assigned label: no

Test call, this compound: Cc1cc(NS(=O)(=O)c2ccc(N)cc2)no1 no

Which result was noted for this compound in the test: CC(=O)N=c1sc(S(N)(=O)=O)nn1C no

Per the assay record, what outcome was assigned to CCCC(CCC)C(=O)O ? no

In this assay, the call recorded for N=c1nc(N2CCCCC2)cc(N)n1O was what? no

Call for entry CCCCC(=O)O[C@H]1CC[C@H]2[C@@H]3CCc4cc(O)ccc4[C@H]3CC[C@]12C : no

Which outcome was entered for the compound COc1ccc(/C=C/C(=O)Nc2ccccc2C(=O)O)cc1OC in this test? no

Returns: the outcome recorded for CC(=O)OCC(=O)[C@@]1(O)CC[C@H]2[C@@H]3C[C@H](C)C4=CC(=O)C=C[C@]4(C)[C@H]3[C@@H](O)C[C@@]21C in this assay. no

Per the assay record, what outcome was assigned to COc1ccc(-c2cc(=O)c3c(OC)c(OC)c(OC)c(OC)c3o2)cc1OC ? yes

* * *

# method description: differential killing of epithelial or mesenchymal cells, primary screen, imaging, PC-3E GFP, TEM4-18 mCherry, co-culture (AID 1345086);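 also: normalised mesenchymal count divided by normalised epithelial count so high means epithelial killing; cells exposed to compound for 72 h before imaging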
# setup conditions: imaging cell counts, at 1 µM, actives lie on both sides, counts scaled to control wells, 1 = unselective
red/green cell ratio (normalised): recorded values
Just the number.

molecule: NS(=O)(=O)c1ccc(C(=O)O)cc1
measured result: 0.82
--
molecule: CCOC(=O)c1c(C)cc(O)c(C=O)c1O
measured result: 0.95
--
molecule: O=C(O)Cc1ccc(-c2ccccc2)cc1
measured result: 0.72
--
molecule: COc1c2ccoc2c(OC)c2oc(=O)ccc12
measured result: 1.06
--
molecule: OCCc1ccccc1
measured result: 0.97

Identify the reported red/green cell ratio (normalised) for the following entry. CC(=O)Oc1cc(-c2coc3cc(OC(C)=O)c(OC(C)=O)c(OC(C)=O)c3c2=O)cc(OC(C)=O)c1OC(C)=O 0.88

Tell me measured red/green cell ratio (normalised) for CC1(O)CCC(C(C)(C)O)CC1 (stereo not given) please. 1.09

* * *

Quick list: cell count per entry.
# method description: modifiers of HSF1 nuclear foci, imaging, Selleck Cancer Library (AID 1347162)
# setup conditions: human cells, at 10 µM; measured here: cell number
Note: the reply should be a number with no unit written.

Consider the following illustrative entries.
molecule: Cc1ccc(Nc2nccc(N(C)c3ccc4c(C)n(C)nc4c3)n2)cc1S(N)(=O)=O
measured result: 7340
//
molecule: CC1=C(/C=C/C(C)=C/C=C/C(C)=C/C(=O)Nc2ccc(O)cc2)C(C)(C)CCC1
measured result: 7280
//
molecule: CCN(CC)CCNC(=O)c1c(C)[nH]c(/C=C2\C(=O)Nc3ccc(F)cc32)c1C
measured result: 6750
//
molecule: Nc1cccc2c1CN(C1CCC(=O)NC1=O)C2=O (stereo unspecified)
measured result: 6670
//
molecule: CNC(=O)c1ccccc1Sc1ccc2c(/C=C/c3ccccn3)n[nH]c2c1
measured result: 7390

Query cell count for CC(C)C[C@H](NC(=O)[C@H](Cc1ccccc1)NC(=O)c1cnccn1)B(O)O 7530

* * *

# method description: inhibition of 3D7 malaria parasite growth – strain 3D7 (AID 2306);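 also: 0% = DMSO wells and 100% = chloroquine plus artemisinin control wells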
# setup conditions: P. falciparum 3D7 erythrocytic growth, LDH absorbance, 72 h; at 2 µM; stronger effect = higher value
Readings of growth inhibition for the listed molecules
Express it in %; write the number only.

Some solved entries appear below for comparison.
molecule: CN(C)CCCSc1ccccc1NC(=O)C=Cc1ccccc1
measured result: 85
//
molecule: O=C(CCCCCNC(=O)c1ccc(O)c(-c2ccc(Cl)c(Cl)c2)c1)NCCN1CCCCC1
measured result: 93
//
molecule: Oc1ccccc1CN(CCCN(Cc1ccccn1)Cc1ccccc1O)Cc1ccccn1
measured result: 92
//
molecule: CNCCNCc1cccc(-c2ccc(-c3nc4ccc(C(F)(F)F)cc4[nH]3)cc2)c1
measured result: 100
//
molecule: CS(=O)(=O)CCNCc1nc(-c2ccc3ncnc(Nc4ccc(OCc5cccc(F)c5)c(Cl)c4)c3c2)cs1
measured result: 98

Hello, please tell me recorded growth inhibition for this one: Oc1ccc(Cl)cc1CN1CCCC(COC(c2ccc(F)cc2)c2ccc(F)cc2)C1 (stereo not given) 98

In one line, give reported growth inhibition of the entry CC(C)(C)NC(=O)COC(=O)c1c2c(nc3ccccc13)C(=Cc1ccc3c(c1)OCO3)CCC2 . 90

Supply reported growth inhibition belonging to this molecule: O=C(C=Cc1ccc(C(=O)Nc2ccc(C3=NCCN3)cc2)cc1)Nc1ccc(C2=NCCN2)cc1 97

Assign growth inhibition to the following record: Cc1cc(NN=Cc2ccc(Cl)cc2)c2ccccc2n1 100

Provide measured growth inhibition value, entry: Cc1ccc2c(NN=Cc3cccc(F)c3)cc(C)nc2c1 96

* * *

# method description: LFS_MB_1R medulloblastoma cell growth inhibition, synergistic combos for chromothripsis tumors, cisplatin or BGB combos (AID 1671452);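 also: cells exposed for 96 hours before readout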
# setup conditions: LFS_MB_1R medulloblastoma cells, measured here: combination with cisplatin, at 5 µM, stronger effect = higher value
Reported inhibition is given for each of the following molecules.
Express it in %; write the number only.

Use these answered entries as a reference point.
mol smiles: N=C(N=C(N)N)N1CCOCC1
quantity: inhibition
measured result: -12.4
//
mol smiles: O=C(CCCCCCC(=O)Nc1ccccc1)NO
quantity: inhibition
measured result: 83.1

Supply reported inhibition belonging to this molecule: CCn1nc(C(=O)O)c(=O)c2cc3c(cc21)OCO3 15.7

* * *

Entries annotated with measured log fold change Tl+ flux
# System: R275C/Slo1WT/beta2
# method description: modulators of BK channel variants, profiling panel, selectivity assay, cell-based, U2OS BacMam, thallium flux, beta subunits (AID 1259406);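 also: initial slope of Thallos dye fluorescence rise after thallium is added; log ratio against the mean of 0.3% DMSO vehicle wells on the same plate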
# setup conditions: at 30 µM
Returns: the value as a bare number; no unit string appended.

Observe how each entry below is paired with its result.
molecule: CC(C(=O)O)c1ccc(-c2ccccc2)c(F)c1 (configuration not stated)
target under test: R275C/Slo1WT/beta2
quantity: log fold change Tl+ flux
measured result: 0.0126
//
molecule: Clc1ccccc1CN1CCc2sccc2C1
target under test: R275C/Slo1WT/beta2
quantity: log fold change Tl+ flux
measured result: 0.00594
//
molecule: O=C(O)CCc1nc(-c2ccccc2)c(-c2ccccc2)o1
target under test: R275C/Slo1WT/beta2
quantity: log fold change Tl+ flux
measured result: 0.0514
//
molecule: CCCC(CCC)C(=O)O
target under test: R275C/Slo1WT/beta2
quantity: log fold change Tl+ flux
measured result: -0.0422
//
molecule: O=C(CCCN1CCC(O)(c2ccc(Cl)cc2)CC1)c1ccc(F)cc1
target under test: R275C/Slo1WT/beta2
quantity: log fold change Tl+ flux
measured result: -0.0319

Identify measured log fold change Tl+ flux corresponding to C#C[C@]1(O)CC[C@H]2[C@@H]3CCC4=CC(=O)CC[C@@H]4[C@H]3CC[C@@]21C -0.0385

Look up and report measured log fold change Tl+ flux for this entry: COc1ccc2cc([C@H](C)C(=O)O)ccc2c1 0.0377

Report log fold change Tl+ flux, nothing else, for this molecule: CCCCC(=O)N(Cc1ccc(-c2ccccc2-c2nn[nH]n2)cc1)[C@H](C(=O)O)C(C)C 0.0346

Name the recorded log fold change Tl+ flux of the item CCc1ccc(CCOc2ccc(CC3SC(=O)NC3=O)cc2)nc1 (configuration not stated) in your answer. -0.0116

For CC(C)(C(=O)O)c1ccc(C(O)CCCN2CCC(C(O)(c3ccccc3)c3ccccc3)CC2)cc1 (configuration not stated) , write its log fold change Tl+ flux. 0.0197

Give reported log fold change Tl+ flux value for N=c1nc(N2CCCCC2)cc(N)n1O 0.0414

Quick one: give measured log fold change Tl+ flux for O=[N+]([O-])c1cccc2cn[nH]c12 -0.00893
